Can you tell me normalized growth for the items I'm about to list?
- method_summary: chemical genetic growth profiling, strain panel (AID 1159580);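 also: tested at 20 µM; growth read once vehicle control cultures reached saturation at 30 °C; 1 = growth at the plate median or of vehicle wells; lower values mean less growth of the strain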
- assay_context: S. cerevisiae deletion strains, growth OD, locus YDL108W, strain KIN28, active compounds read low
In all, about 5,500 compounds went through this assay and about 2,000 (36%) were called active. Inconclusive results (about 18%) are left out. Some of the results follow.
Numbers only.

[
  {
    "compound": "Nc1ccccc1C(=O)Nc1cc(C(F)(F)F)cc(C(F)(F)F)c1",
    "normalized growth": 0.969
  },
  {
    "compound": "CC1C(c2ccccc2)N(C)C(c2ccccc2)CC1(O)c1ccc(F)cc1 (stereo not drawn)",
    "normalized growth": 1.01
  },
  {
    "compound": "FC(F)(F)c1cc(NC(=S)SCCSC(=S)Nc2cc(C(F)(F)F)cc(C(F)(F)F)c2)cc(C(F)(F)F)c1",
    "normalized growth": 0.99
  },
  {
    "compound": "CNC(=O)Sc1c(-c2ccc(Cl)cc2)nn(C(=O)NC)c1SC",
    "normalized growth": 0.94
  },
  {
    "compound": "N/C(=N/O)c1ccc(Oc2ccc(C3SCCS3)cc2)c([N+](=O)[O-])c1",
    "normalized growth": 0.99
  },
  {
    "compound": "Clc1ccc(Oc2ccnc3cc(Cl)ccc23)cc1",
    "normalized growth": 0.921
  },
  {
    "compound": "Clc1cccc(Nc2ncc(-c3ccc4c(c3)OCCCO4)s2)c1",
    "normalized growth": 0.978
  },
  {
    "compound": "Brc1ccc(-c2csc(-c3cccnc3)n2)cc1",
    "normalized growth": 0.904
  }
]

Required: normalized growth, one value per compound below.
1. CC1CCC(C(C)C)C(N(Cc2ccccc2)C(=O)c2ccccc2)C1 (stereo not drawn)
2. O=S(=O)(Nc1csc(C(F)(F)F)c1-c1ccccc1)c1cc(Br)c(Br)s1
3. Cc1ccc(-c2nc(NS(=O)(=O)c3cccc4nonc34)sc2C)cc1Cl
4. COc1ccc(-c2cn3cc(C)ccc3n2)cc1
5. O=C(Nc1cc(Cl)ccc1O)c1ccccc1CSc1ccc(Cl)cc1
6. Cc1ccccc1/C=C/c1c[nH]c2ccccc12

0.986
0.939
0.975
0.983
0.981
0.949

Required: normalized growth, one value per compound below.
1. COc1ccc2c(c1)CCc1sc(NC(=O)c3ccco3)nc1-2
2. Clc1ccccc1-c1csc(-c2cccnc2)n1
3. O=S(=O)(NCc1ccc(C(F)(F)F)cc1)c1cc(Br)c(Br)s1
4. Clc1ccc(CSc2nccn2-c2cc(Cl)ccc2Cl)cc1
5. O=C(Nc1ccncc1)c1cc(-c2ccccc2)oc1C(F)(F)F
6. N#CC(C#N)=Cc1c(-c2ccccc2Cl)[nH]c2ccccc12
7. COc1ccc(-c2csc(-c3cccnc3)n2)cc1

[0.947, 0.924, 0.974, 0.937, 0.991, 0.975, 0.958]

Required: normalized growth, one value per compound below.
1. N#Cc1cccc(CSc2nc3ccc(C(F)(F)F)cc3[nH]2)c1
2. Clc1ccccc1-c1csc(-c2ccncc2)n1

1. 0.973
2. 0.965

---

- method_summary: chemical genetic growth profiling, strain panel (AID 1159580);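 also: tested at 20 µM; growth read once vehicle control cultures reached saturation at 30 °C; 1 = growth at the plate median or of vehicle wells; lower values mean less growth of the strain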
- assay_context: S. cerevisiae deletion strains, growth OD, locus YJL092W, strain hpr5, active compounds read low
The campaign covered roughly 5,500 compounds. About 2,000 (36%) were called active. Roughly 18% stayed inconclusive and do not appear here. Some of the results follow.
Can you tell me normalized growth for the items I'm about to list?
Answers are plain numbers.

Some entries whose results are on file:
[
  {
    "molecule": "CC(=O)O[C@H]1C[C@@H](OC(C)=O)C(C)(C)C2C[C@@H](O)[C@]3(C)C(CC[C@@]4(C)[C@H](c5ccoc5)OC(=O)[C@H]5O[C@]543)[C@]21C (stereo partly specified)",
    "value_observed": 0.99
  },
  {
    "molecule": "Clc1ccc(CSC(Cn2ccnc2)c2ccc(Cl)cc2Cl)cc1 (stereo unspecified)",
    "value_observed": 0.0607
  },
  {
    "molecule": "Clc1ccc(CO/N=C(/Cn2ccnc2)c2ccc(Cl)cc2Cl)c(Cl)c1",
    "value_observed": 0.0639
  },
  {
    "molecule": "Clc1ccc(COC(Cn2ccnc2)c2ccc(Cl)cc2Cl)c(Cl)c1 (stereo unspecified)",
    "value_observed": 0.061
  },
  {
    "molecule": "CC(=O)O[C@@H]1CC2C(C)(C)C(=O)C3OC3[C@]2(C)C2CC[C@@]3(C)[C@H](c4ccoc4)OC(=O)C4OC43[C@@]21C (stereo partly specified)",
    "value_observed": 0.981
  },
  {
    "molecule": "CC(=O)O[C@@H]1CC2C(C)(C)[C@@H](O)CC[C@]2(C)C2CC[C@@]3(C)[C@H](c4ccoc4)OC(=O)[C@H]4O[C@]43[C@@]21C (stereo partly specified)",
    "value_observed": 0.995
  },
  {
    "molecule": "CN[C@@H]1C(OC2[C@H](O[C@H]3[C@H](O)[C@@H](O)[C@H](N=C(N)N)[C@@H](O)[C@@H]3N=C(N)N)OC(C)[C@]2(O)CO)OC(CO)C(O)C1O (stereo partly specified)",
    "value_observed": 0.999
  },
  {
    "molecule": "CC(=O)O[C@@H]1CC2C(C)(C)[C@H](O)C=C[C@]2(C)C2CC[C@@]3(C)[C@H](c4ccoc4)OC(=O)C4OC43[C@@]21C (stereo partly specified)",
    "value_observed": 1.02
  }
]

Required: normalized growth, one value per molecule below.
1. COC(=O)[C@H](c1ccccc1Cl)N1CCc2sccc2C1
2. O=c1cccc2n1CC1CC2CN2CCCC[C@@H]12 (stereo partly specified)
3. Clc1ccc(COC(Cn2ccnc2)c2ccc(Cl)cc2Cl)cc1 (stereo unspecified)

1. 0.98
2. 0.981
3. 0.0592
